- RUN_DESCRIPTION: Metabolic stability in mouse liver microsomes (MLM)
- Format: in vitro ADME
- ASSAY_CONTEXT: pH 7.4, 1 μM compound, 0.5 mg/ml microsomal protein, 37° C., read-out: MLM t1/2 average
TEST_READOUT: half-life at 1 μM (min)
Number in min, nothing else.

Below, each entry is followed by its recorded half-life at 1 μM result.
[
  {
    "MOLECULE": "CCOc1ccc(-c2nnc([C@H]3C[C@H](NC(=O)c4cccc5ncc(O)nc45)C3)n2-c2ccccc2F)nc1",
    "TEST_READOUT": "half-life at 1 μM",
    "READING": 19
  },
  {
    "MOLECULE": "CCOc1ccc(-c2nnc([C@H]3C[C@H](NC(=O)c4cccc5c4ncc[n+]5[O-])C3)n2-c2ccccc2F)nc1",
    "TEST_READOUT": "half-life at 1 μM",
    "READING": 71
  }
]

Switching to the query record.
### Prompt Look up and report measured half-life at 1 μM for this entry: CCOc1ccc(-c2nnc([C@H]3C[C@H](NC(=O)c4cccc5nccnc45)C3)n2-c2ccccc2F)nc1 [Example 154 of WO 2019/243822, reference compound]
### Response 17

###

- System: HEK293
- RUN_DESCRIPTION: Cellular IC50 HEK293
- Format: cell-based
- ASSAY_CONTEXT: Homo sapiens, HEK293, read-out: Cellular IC50 HEK 293
TEST_READOUT: pIC50
The scale used: pIC50 is minus the common logarithm of the concentration in molar units.

[
  {
    "COMPOUND": "CCOc1ccc(-c2nnc([C@H]3C[C@H](NC(=O)c4cccc5c4ccc[n+]5[O-])C3)n2-c2ccccc2F)nc1 [Example 25]",
    "MEASURED_ON": "HEK293",
    "READING": 5.00
  },
  {
    "COMPOUND": "CCOc1ccc(-c2nnc([C@H]3C[C@H](NC(=O)c4cc[n+]([O-])c5cc(O)cnc45)C3)n2-c2ccccc2F)nc1 [Example 27]",
    "MEASURED_ON": "HEK293",
    "READING": 7.66
  },
  {
    "COMPOUND": "CCOc1ccc(-c2nnc([C@H]3C[C@H](NC(=O)c4cccc5c4nc(C)c(C)[n+]5[O-])C3)n2-c2ccccc2F)nc1 [Example 24]",
    "MEASURED_ON": "HEK293",
    "READING": 8.43
  }
]

### Prompt Output reported pIC50 of the compound CCOc1ccc(-c2nnc([C@H]3C[C@H](NC(=O)c4cc[n+]([O-])c5cc(OC)cnc45)C3)n2-c2ccccc2F)nc1 [Example 28] on HEK293.
### Response 8.92

### Prompt Specify pIC50 for CCOc1ccc(-c2nnc([C@H]3C[C@H](NC(=O)c4cccc(C(=O)N5CCC5)n4)C3)n2-c2ccccc2F)nc1 [Example 10] , system HEK293.
### Response 7.39

###

- MEASURED_ON: TNKS2 (Homo sapiens (Human), UniProt Q9H2K2)
- Sequence (Q9H2K2 whole entry): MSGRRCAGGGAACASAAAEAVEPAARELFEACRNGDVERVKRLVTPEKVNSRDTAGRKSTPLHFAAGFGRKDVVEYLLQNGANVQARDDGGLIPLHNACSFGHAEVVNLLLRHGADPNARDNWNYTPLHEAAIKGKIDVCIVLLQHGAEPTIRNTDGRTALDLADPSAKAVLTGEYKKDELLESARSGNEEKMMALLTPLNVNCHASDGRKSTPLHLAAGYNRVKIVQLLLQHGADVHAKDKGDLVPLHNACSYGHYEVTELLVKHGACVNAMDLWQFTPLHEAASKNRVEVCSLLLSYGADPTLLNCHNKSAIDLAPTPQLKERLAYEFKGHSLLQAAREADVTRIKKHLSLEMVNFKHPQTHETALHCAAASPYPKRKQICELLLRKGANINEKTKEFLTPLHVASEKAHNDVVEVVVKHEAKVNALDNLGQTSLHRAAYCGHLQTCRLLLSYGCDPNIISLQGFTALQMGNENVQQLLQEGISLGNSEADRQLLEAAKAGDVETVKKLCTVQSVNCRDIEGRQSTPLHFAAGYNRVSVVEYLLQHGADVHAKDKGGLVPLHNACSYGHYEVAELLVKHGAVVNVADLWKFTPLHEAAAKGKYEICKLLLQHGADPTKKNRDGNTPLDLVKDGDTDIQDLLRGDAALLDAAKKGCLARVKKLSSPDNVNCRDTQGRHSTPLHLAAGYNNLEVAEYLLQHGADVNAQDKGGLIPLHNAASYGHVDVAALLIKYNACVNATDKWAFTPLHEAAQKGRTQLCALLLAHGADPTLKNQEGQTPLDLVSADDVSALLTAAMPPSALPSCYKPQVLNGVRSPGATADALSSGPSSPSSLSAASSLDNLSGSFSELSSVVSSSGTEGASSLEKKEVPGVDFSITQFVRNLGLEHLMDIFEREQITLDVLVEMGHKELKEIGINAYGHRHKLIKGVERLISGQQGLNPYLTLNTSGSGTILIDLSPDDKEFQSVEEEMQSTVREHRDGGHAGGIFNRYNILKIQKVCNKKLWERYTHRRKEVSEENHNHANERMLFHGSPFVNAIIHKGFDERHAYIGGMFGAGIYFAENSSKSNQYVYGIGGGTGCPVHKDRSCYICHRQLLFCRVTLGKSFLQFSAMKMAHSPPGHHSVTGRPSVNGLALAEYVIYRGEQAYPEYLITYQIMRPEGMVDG
- RUN_DESCRIPTION: Biochemical IC50 TNKS2
- ASSAY_CONTEXT: read-out: Biochemical IC50 TNKS2
TEST_READOUT: IC50 (nM)
# unit: nM | format: bare number

[
  {
    "MOLECULE": "CCOc1ccc(-c2nnc([C@H]3C[C@H](NC(=O)c4cccc5nccnc45)C3)n2-c2ccccc2F)nc1 [Example 154 of WO 2019/243822, reference compound]",
    "READING": 1.8
  },
  {
    "MOLECULE": "CCOc1ccc(-c2nnc([C@H]3C[C@H](NC(=O)c4cccc5nc(O)c(O)nc45)C3)n2-c2ccccc2F)nc1",
    "READING": 71
  }
]

Alright, here's another molecule for you.
### Prompt Return reported IC50. Input molecule: "CCOc1ccc(-c2nnc([C@H]3C[C@H](NC(=O)c4cccc5nccnc45)C3)n2-c2ccccc2F)[n+]([O-])c1"
### Response 1.3
